Give measured % Phosphatase Activity (compared to DMSO) PRL-1 for each item. Keep answers brief.
Target: recombinant PRL-1 (Homo sapiens, UniProt Q93096)
Construct: 6xHis (N, cleaved yes); made in house; host or cells: E. coli One Shot BL21 Star
Sequence (Q93096 1-173): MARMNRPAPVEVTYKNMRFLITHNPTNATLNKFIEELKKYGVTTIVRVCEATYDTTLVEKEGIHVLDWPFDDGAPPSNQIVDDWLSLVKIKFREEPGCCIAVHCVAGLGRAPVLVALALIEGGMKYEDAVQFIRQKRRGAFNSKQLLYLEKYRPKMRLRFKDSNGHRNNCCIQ
Experiment: In vitro phosphatase assay (DiFMUP hydrolysis), PRL-1
Format: biochemical
Settings: FDA-approved drug screen; compared to DMSO
Structures can show the parent of a compound that is named as a salt.
One number for each entry, in %.

For each entry beneath this line, provide reported % Phosphatase Activity (compared to DMSO) PRL-1.
1. CCN(CC)CCOC(=O)c1ccc(N)cc1 [Procaine]
2. CN1CCCC(n2nc(Cc3ccc(Cl)cc3)c3ccccc3c2=O)CC1 (stereo not drawn) [Azelastine HCl]
3. CN(C)C/C=C/C(=O)Nc1cc2c(Nc3ccc(F)c(Cl)c3)ncnc2cc1O[C@H]1CCOC1.O=C(O)/C=C\C(=O)O.O=C(O)/C=C\C(=O)O [Afatinib (BIBW2992) Dimaleate]
4. CC1=C(C(=O)O)N2C(=O)[C@@H](NC(=O)[C@H](N)c3ccccc3)[C@H]2SC1
5. Cn1c([N+](=O)[O-])cnc1COC(N)=O
6. O=C1NCC2(CCN(CCc3ccccc3)CC2)O1 [Fenspiride HCl]
7. O=C(O)c1ccccc1O
8. CC1=C(C(=O)O)N2C(=O)[C@@H](NC(=O)[C@H](N)C3=CCC=CC3)[C@H]2SC1

Output:
1: 102; 2: 121; 3: 97; 4: 98; 5: 86; 6: 90; 7: 103; 8: 95

Input: Under recombinant PRL-1 (Homo sapiens, UniProt Q93096): % Phosphatase Activity (compared to DMSO) PRL-1 value of O=C1NC(=O)C(c2ccccc2)(c2ccccc2)N1 [Phenytoin] ?
Output: 104

###

molecular target: recombinant PRL-2 (Homo sapiens, UniProt Q12974); construct: 6xHis (N, cleaved yes); made in house; host or cells: E. coli One Shot BL21 Star; assay: In vitro phosphatase assay (DiFMUP hydrolysis), PRL-2; format: biochemical; conditions: FDA-approved drug screen; activity compared to DMSO
Sequence (Q12974 whole entry): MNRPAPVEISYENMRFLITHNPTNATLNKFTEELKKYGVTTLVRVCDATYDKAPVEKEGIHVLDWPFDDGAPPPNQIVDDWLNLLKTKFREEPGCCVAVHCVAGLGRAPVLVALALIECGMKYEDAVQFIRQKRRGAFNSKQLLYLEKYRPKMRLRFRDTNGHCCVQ
Where a name gives a salt, the structure may show the parent alone.
VALUE TYPE: % Phosphatase Activity (compared to DMSO) PRL-2 (%)
Give bare numbers, in %.

| COMPOUND | ENDPOINT RESULT |
| --- | --- |
| C[C@]12C=CC(=O)C=C1CC[C@H]1[C@@H]3C[C@@H](O)[C@](O)(C(=O)CO)[C@@]3(C)C[C@H](O)[C@@]12F | 97 |
| Cc1ccccc1C(=O)Nc1ccc(C(=O)N2CCCC(O)c3cc(Cl)ccc32)c(C)c1 (centres unmarked) | 143 |
| OCC(CO)N[C@H]1C[C@](O)(CO)[C@@H](O)[C@H](O)[C@H]1O | 104 |
| Cc1ccc(O)c([C@H](CCN(C(C)C)C(C)C)c2ccccc2)c1 [Tolterodine tartrate] | 110 |
| Cc1onc(-c2ccccc2)c1-c1ccc(S(N)(=O)=O)cc1 | 103 |

For each entry beneath this line, provide reported % Phosphatase Activity (compared to DMSO) PRL-2.
1. Nc1ccc(S(=O)(=O)NC(=O)c2ccccc2)cc1 [Sulfabenzamide]
2. COc1cc2nccc(Oc3ccc(NC(=O)Nc4cc(C)on4)c(Cl)c3)c2cc1OC

Output:
121
101

Input: Under recombinant PRL-2 (Homo sapiens, UniProt Q12974): % Phosphatase Activity (compared to DMSO) PRL-2 value of CCC(C)(C)C(=O)O[C@H]1C[C@@H](C)C=C2C=C[C@H](C)[C@H](CC[C@@H]3C[C@@H](O)CC(=O)O3)[C@H]21 ?
Output: 94

###

target: recombinant PRL-3 (Homo sapiens); construct: 6xHis (N, cleaved yes); made in house; host or cells: E. coli One Shot BL21 Star; test: In vitro phosphatase assay (DiFMUP hydrolysis), PRL-3; type: biochemical; conditions: FDA-approved drug screen; compared to DMSO
Where a name gives a salt, the structure may show the parent alone.
Label Not fulfilled if % Phosphatase Activity (compared to DMSO) PRL-3 falls below 80%; label Fulfilled in every other case.

Worked examples follow.
| COMPOUND | LABEL VALUE |
| --- | --- |
| Cl.Cl.OCCN1CCN(CCCN2c3ccccc3Sc3ccc(C(F)(F)F)cc32)CC1 [Fluphenazine (dihydrochloride)] | Fulfilled |
| O=C(Nc1nc2cccc(-c3ccc(CN4CCS(=O)(=O)CC4)cc3)n2n1)C1CC1 | Fulfilled |
| O.S=c1[nH]cnc2nc[nH]c12 [6-Mercaptopurine (6-MP) Monohydrate] | Fulfilled |
| Cc1cc(=O)[nH]c(=S)[nH]1 | Not fulfilled |
| c1ccc(CN(CC2=NCCN2)c2ccccc2)cc1 [Antazoline HCl] | Not fulfilled |

Input: Assess whether reported % Phosphatase Activity (compared to DMSO) PRL-3 for COc1ccc2[nH]c([S+]([O-])Cc3ncc(C)c(OC)c3C)nc2c1 (centres unmarked) sits at 80% or higher.
Output: Not fulfilled

Input: Input CN(C)C/C=C/C(=O)Nc1cc2c(Nc3ccc(F)c(Cl)c3)ncnc2cc1O[C@H]1CCOC1
Output: Fulfilled

###

target: recombinant PRL-3 (Homo sapiens, UniProt O75365); construct: 6xHis (N, cleaved yes); made in house; host or cells: E. coli One Shot BL21 Star; assay: In vitro phosphatase assay (DiFMUP hydrolysis), PRL-3; type: biochemical; settings: FDA-approved drug screen; compared to DMSO
Sequence (O75365 whole entry): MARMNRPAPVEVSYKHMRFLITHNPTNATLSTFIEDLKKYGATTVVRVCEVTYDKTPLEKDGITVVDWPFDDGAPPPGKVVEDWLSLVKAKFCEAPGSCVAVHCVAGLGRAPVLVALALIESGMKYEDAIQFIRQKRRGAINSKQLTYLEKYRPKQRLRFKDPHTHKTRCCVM
VALUE TYPE: % Phosphatase Activity (compared to DMSO) PRL-3
I'd appreciate it if you wrote the number followed by its unit.

| COMPOUND | ENDPOINT RESULT |
| --- | --- |
| COc1ccc(C(Cl)=C(c2ccc(OC)cc2)c2ccc(OC)cc2)cc1 [Chlorotrianisene] | 92% |

For each entry beneath this line, provide reported % Phosphatase Activity (compared to DMSO) PRL-3.
1. COc1ccc(Cl)cc1C(=O)NCCc1ccc(S(=O)(=O)NC(=O)NC2CCCCC2)cc1 [Glyburide]
2. CC1(C)S[C@@H]2[C@H](NC(=O)Cc3ccccc3)C(=O)N2[C@H]1C(=O)O [Penicillin G Sodium]
3. CC[C@H]1[C@@H](O)[C@@H]2[C@H](CC[C@]3(C)[C@@H]([C@H](C)CCC(=O)O)CC[C@@H]23)[C@@]2(C)CC[C@@H](O)C[C@@H]12 [Obeticholic Acid]
4. Nc1cc(C(Cl)=C(Cl)Cl)c(S(N)(=O)=O)cc1S(N)(=O)=O [Clorsulon]
5. Clc1ccc(COC(Cn2ccnc2)c2ccc(Cl)cc2Cl)c(Cl)c1 (centres unmarked) [Miconazole Nitrate]
6. O=c1[nH]c2ccccc2n1C1CCN(CCCC(c2ccc(F)cc2)c2ccc(F)cc2)CC1 [Pimozide]

Output:
1. 77%
2. 75%
3. 90%
4. 92%
5. 92%
6. 96%

For each entry beneath this line, provide reported % Phosphatase Activity (compared to DMSO) PRL-3.
1. CC(=O)NC(CCC(N)=O)C(=O)O (centres unmarked) [Aceglutamide]
2. Cl.O=C1OC(CN2CCOCC2)CN1/N=C/c1ccc([N+](=O)[O-])o1 (centres unmarked) [Furaltadone HCl]
3. CC[C@H](NC(=O)[C@H](C)NC)C(=O)N1C[C@@H](O)C[C@H]1Cc1c(-c2[nH]c3cc(F)ccc3c2C[C@@H]2C[C@H](O)CN2C(=O)[C@H](CC)NC(=O)[C@H](C)NC)[nH]c2cc(F)ccc12 [Birinapant]
4. CC[C@H]1OC(=O)[C@H](C)[C@@H](O[C@H]2C[C@@](C)(OC)[C@@H](O)[C@H](C)O2)[C@H](C)[C@@H](O[C@@H]2O[C@H](C)C[C@H](N(C)C)[C@H]2O)[C@](C)(O)C[C@@H](C)/C(=N\OCOCCOC)[C@H](C)[C@@H](O)[C@]1(C)O [Roxithromycin]
5. CC1(C)S[C@@H]2[C@H](NC(=O)C(C(=O)O)c3ccccc3)C(=O)N2[C@H]1C(=O)O (some centres unmarked) [Carbenicillin disodium]
6. CC(NC(C)(C)C)C(=O)c1cccc(Cl)c1.Cl (centres unmarked) [Amfebutamone HCl]
7. COc1c(C)c2c(c(O)c1C/C=C(\C)CCC(=O)OCCN1CCOCC1)C(=O)OC2 [Mycophenolate Mofetil]

Output:
["87%", "65%", "138%", "70%", "87%", "77%", "102%"]

###

biological target: recombinant PRL-2 (Homo sapiens, UniProt Q12974); construct: 6xHis (N, cleaved yes); made in house; host or cells: E. coli One Shot BL21 Star; assay: In vitro phosphatase assay (DiFMUP hydrolysis), PRL-2; type: biochemical; settings: FDA-approved drug screen; compared to DMSO;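 further: PRL-2 activity read as DiFMUP hydrolysis after 20 min at room temperature with drug, enzyme first pre-reduced at 4 °C for 20 min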
Counter-ions that a name gives are not always drawn.
Give measured % Phosphatase Activity (compared to DMSO) PRL-2 for each item. Keep answers brief.
Numbers only, in %.

See these solved cases before continuing.
| MOLECULE | UNIT ABBREVIATION | ENDPOINT RESULT |
| --- | --- | --- |
| O=C(NCCN1CCOCC1)c1ccc(Cl)cc1 [Moclobemide (Ro 111163)] | % | 109 |
| CCOc1nc2cccc(C(=O)OCc3oc(=O)oc3C)c2n1Cc1ccc(-c2ccccc2-c2noc(=O)[nH]2)cc1 | % | 96 |
| COCCCN1CCC(NC(=O)c2cc(Cl)c(N)c3c2OCC3)CC1.O=C(O)CCC(=O)O [Prucalopride Succinat] | % | 77 |
| COc1ccc2cc(CCC(C)=O)ccc2c1 | % | 102 |
| COc1cc(C)c(/C=C/C(C)=C/C=C/C(C)=C/C(=O)O)c(C)c1C | % | 87 |
| CC1=NN(c2ccc(C)c(C)c2)C(=O)/C1=N\Nc1cccc(-c2cccc(C(=O)O)c2)c1O | % | 66 |

For each entry beneath this line, provide reported % Phosphatase Activity (compared to DMSO) PRL-2.
1. CCCCc1nc(Cl)c(CO)n1Cc1ccc(-c2ccccc2-c2nnn[n-]2)cc1.[K+]
2. CC1(COc2ccc3c(c2)ncn3-c2ccc3cccc(N4CCC(N)CC4)c3n2)COC1
3. CC(C)C(=O)Oc1ccc(CO)cc1[C@H](CCN(C(C)C)C(C)C)c1ccccc1 [Fesoterodine Fumarate]
4. Cl.Cl.OCCOCCN1CCN(C(c2ccccc2)c2ccc(Cl)cc2)CC1 (stereo not shown) [Hydroxyzine 2HCl]
5. O=C(CCCN1CCN(c2ccccn2)CC1)c1ccc(F)cc1

Output:
93
115
100
103
96
